SYSTEM NAME: 5HT2C receptors (Homo sapiens)
Sequence (P28335 33-458): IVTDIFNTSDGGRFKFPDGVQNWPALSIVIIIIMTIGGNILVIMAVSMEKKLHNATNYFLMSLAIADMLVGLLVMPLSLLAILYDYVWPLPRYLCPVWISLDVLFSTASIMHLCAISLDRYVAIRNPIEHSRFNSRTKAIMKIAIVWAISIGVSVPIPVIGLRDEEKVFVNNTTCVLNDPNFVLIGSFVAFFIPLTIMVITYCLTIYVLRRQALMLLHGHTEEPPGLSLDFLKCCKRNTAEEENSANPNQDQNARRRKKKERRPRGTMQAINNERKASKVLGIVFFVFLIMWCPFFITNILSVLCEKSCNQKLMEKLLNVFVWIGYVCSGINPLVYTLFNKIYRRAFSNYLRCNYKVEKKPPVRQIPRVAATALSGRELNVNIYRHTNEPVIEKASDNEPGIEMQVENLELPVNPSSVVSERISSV
EXPERIMENT: Human 5-HT2C functional assay in CHO-K1 cells (calcium flux, FLIPR)
Assay type: cell-based
Set-up: expressed in transfected cells; host or cells: CHO-K1 cells
COND: CHO-K1, read-out: Emax (%), 5-HT2c Agonist Activity
Items are presented alongside their recorded Emax.

SMILES STRUCTURE | SYSTEM NAME | Emax, %
FCCN1CCN2c3ccccc3OCC[C@H]2C1 | 5HT2C receptors (Homo sapiens) | 90
FCCN1CCN2c3ccccc3OCC[C@@H]2C1 | 5HT2C receptors (Homo sapiens) | 90
FCC(CF)N1CCN2c3ccccc3OCC[C@H]2C1 | 5HT2C receptors (Homo sapiens) | 70
Cc1cccc2c1OCC[C@H]1CN(CCF)CCN21 | 5HT2C receptors (Homo sapiens) | 95
FCCN1CCN2c3cccc(F)c3OCC[C@H]2C1 | 5HT2C receptors (Homo sapiens) | 95
